- ASSAY_DETAILS: NCI Yeast Anticancer Drug Screen. Data for the rad14 strain (AID 159);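 further: 0% = growth of vehicle-treated control cultures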
- DETAILS: S. cerevisiae rad14 strain growth inhibition; at 11.0 µM; hits give high values
About 79,000 compounds went through this panel and 15% of them were active in at least one assay; those are over-represented in the sample as a whole. Active and inactive are the calls of the source. No stated cut-off is given here; in the data, active means growth inhibition above about 70%; inactive means the rest.
# growth inhibition per entry

Example entries and their recorded answers appear below.
| COMPOUND | READOUT_VALUE |
| --- | --- |
| Oc1ccccc1N=Cc1ccc(Cl)cc1 | 11% (inactive) |
| OB(O)c1ccccc1C#Cc1ccccc1B(O)O | 14% (inactive) |
| C=Cc1cnc([N+](=O)[O-])n1C | 76% (active) |
| COc1ccc(/C(C#N)=C/c2ccc(OC)c(OC)c2)cc1 | -27% (inactive) |
| c1ccc2c(c1)ccc1c3ccncc3ccc21 | 90% (active) |

Given the compound "Clc1cc(-c2ccccc2)nc2ccccc12" , what is its reported growth inhibition?
1% (inactive)

Given the compound "O=C1CC(=O)N(C2CCCCC2)C(=O)N1c1ccccc1S(=O)(=O)Oc1ccccc1" , what is its reported growth inhibition?
-26% (inactive)

Given the compound "Cc1ccc(S(=O)(=O)N/N=C/C2(c3ccccc3)c3ccccc3-c3ccccc32)cc1" , what is its reported growth inhibition?
45% (inactive)

Given the compound "CCCc1[nH]nc(C(N)=O)c1N=NN(C)C" , what is its reported growth inhibition?
5% (inactive)

Given the compound Cc1cc(O)c2c(c1O)C(=O)C13C(=C2O)C(=O)C2C(O)C1C1C(O)C3C(=O)C3=C(O)c4c(O)cc(C)c(O)c4C(=O)C321 (configuration not stated) , what is its reported growth inhibition?
52% (inactive)

Given the compound "O=C(CCc1ccccc1)ON1C(=S)C(c2ccccc2)(c2ccccc2)N=C1Sc1ccccc1" , what is its reported growth inhibition?
27% (inactive)

Given the compound "CN(CC(=O)O)c1ccc(/C=C/c2ccnc3ccccc23)cc1" , what is its reported growth inhibition?
-2% (inactive)
